Target: Kappa-type opioid receptor (Cavia porcellus)
Sequence (P41144 whole entry): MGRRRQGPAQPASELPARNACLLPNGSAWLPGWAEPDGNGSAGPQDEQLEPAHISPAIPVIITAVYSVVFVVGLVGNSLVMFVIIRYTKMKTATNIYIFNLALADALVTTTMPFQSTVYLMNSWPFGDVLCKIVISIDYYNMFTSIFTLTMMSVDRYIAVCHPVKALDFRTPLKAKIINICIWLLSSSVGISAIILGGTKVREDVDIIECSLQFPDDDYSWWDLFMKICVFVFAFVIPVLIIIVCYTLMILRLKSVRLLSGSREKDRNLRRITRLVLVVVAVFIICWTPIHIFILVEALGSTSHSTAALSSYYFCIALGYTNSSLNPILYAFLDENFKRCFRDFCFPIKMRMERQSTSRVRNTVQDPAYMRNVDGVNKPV
Assay: Displacement of [3H]U-69593 from kappa opioid receptors in guine pig brain (minus cerebellum).
Type: tissue-based
pKi: −log10 of the molar value.

{"COMPOUND": "CN(C)C[C@@H]1CCCCN1C(=O)Cc1ccc(Cl)c(Cl)c1", "pKi": 9.15}
{"COMPOUND": "CN1CCCC1C1CCCCN1C(=O)Cc1ccc(Cl)c(Cl)c1 (stereo in doubt; 42)", "pKi": 7.93}
{"COMPOUND": "O=C(Cc1ccc(C(F)(F)F)cc1)N1CCCCC1CN1CCCC1 (stereo in doubt; 20)", "pKi": 9.11}
{"COMPOUND": "CN1CCCC1C1CCCCN1C(=O)Cc1ccc(Cl)c(Cl)c1 (stereo in doubt; 41)", "pKi": 9.48}
{"COMPOUND": "O=C(Cc1ccc(C(F)(F)F)cc1)N1CCCCC1CN1CCCC1 (stereo in doubt; 21)", "pKi": 9.24}
{"COMPOUND": "CCN(CC)CC1CCCCN1C(=O)Cc1ccc(Cl)c(Cl)c1 (stereo not given)", "pKi": 8.89}
{"COMPOUND": "CC(C1CCCCN1C(=O)Cc1ccc(Cl)c(Cl)c1)N(C)C (stereo in doubt; 37)", "pKi": 9.22}
{"COMPOUND": "O=C(Cc1ccc(Br)cc1)N1CCCCC1CN1CCCC1 (stereo not given)", "pKi": 9.08}
{"COMPOUND": "O=C(Cc1ccc(O)cc1)N1CCCCC1CN1CCCC1 (stereo not given)", "pKi": 6.71}
{"COMPOUND": "O=C(Cc1ccc(F)cc1)N1CCCCC1CN1CCCC1 (stereo not given)", "pKi": 7.81}

====

Target: Mu-type opioid receptor (Cavia porcellus, UniProt P97266)
Sequence (P97266 whole entry): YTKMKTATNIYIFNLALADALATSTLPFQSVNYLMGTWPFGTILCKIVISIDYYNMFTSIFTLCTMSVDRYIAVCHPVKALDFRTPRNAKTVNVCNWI
Assay: Compound was evaluated for its binding affinity against opioid receptor mu subtype in guinea pig brain (minus cerebellum) using [3H]DAGO as radioligand.
Type: tissue-based
REPORTED METRIC: Ki

{"COMPOUND": "CC(C1CCCCN1C(=O)Cc1ccc(Cl)c(Cl)c1)N(C)C (stereo in doubt; 38)", "REPORTED METRIC": "Ki", "OBSERVED VALUE": "> 10 µM"}

====

Biological target: UniProtKB P41144
Assay: Compound was evaluated for its binding affinity against Opioid receptor kappa 1 subtype in guinea pig brain (minus cerebellum) using [3H]U-69593 as radioligand.
Assay type: tissue-based
Below: a set of entries, each annotated with reported Ki.
REPORTED METRIC: Ki (nM)

{"COMPOUND": "O=C(Cc1ccc(Cl)c(Cl)c1)N1CCCCC1CN1CCCCC1 (configuration not stated)", "UNIT ABBREV": "nM", "OBSERVED VALUE": 0.48}
{"COMPOUND": "CN(C)CC1CCCCN1C(=O)Cc1ccc(Cl)c(Cl)c1 (configuration not stated)", "UNIT ABBREV": "nM", "OBSERVED VALUE": 1.36}

====

Below: a set of entries, each annotated with reported pKi.
Target: Mu-type opioid receptor (Cavia porcellus)
Test: Displacement of [3H]DAGO from mu opioid receptors in guinea pig brain (minus cerebellum).
Type: tissue-based
pKi: −log10 of the molar value.

{"MOLECULE": "O=C(Cc1ccc(Cl)c(Cl)c1)N1CCCC[C@H]1CN1CCCC1", "EXPERIMENTAL SYSTEM": "Mu-type opioid receptor (Cavia porcellus)", "RELATION": "=", "pKi": 5.81}
{"MOLECULE": "O=C(Cc1ccc(Cl)cc1)N1CCCCC1CN1CCCC1 (stereo unspecified)", "EXPERIMENTAL SYSTEM": "Mu-type opioid receptor (Cavia porcellus)", "RELATION": "=", "pKi": 5.23}
{"MOLECULE": "O=C(Cc1ccc(C(F)(F)F)cc1)N1CCCCC1CN1CCCC1 (stereo in doubt; 21)", "EXPERIMENTAL SYSTEM": "Mu-type opioid receptor (Cavia porcellus)", "RELATION": "=", "pKi": 5.63}
{"MOLECULE": "Cc1ccc(CC(=O)N2CCCCC2CN2CCCC2)cc1C (stereo unspecified)", "EXPERIMENTAL SYSTEM": "Mu-type opioid receptor (Cavia porcellus)", "RELATION": "=", "pKi": 5.27}
{"MOLECULE": "CN1CCCC1C1CCCCN1C(=O)Cc1ccc(Cl)c(Cl)c1 (stereo in doubt; 41)", "EXPERIMENTAL SYSTEM": "Mu-type opioid receptor (Cavia porcellus)", "RELATION": "=", "pKi": 6.33}
{"MOLECULE": "O=C(Cc1ccc(Cl)c(Cl)c1)N1CCCC[C@@H]1CN1CCCC1", "EXPERIMENTAL SYSTEM": "Mu-type opioid receptor (Cavia porcellus)", "RELATION": "=", "pKi": 5.15}
{"MOLECULE": "CN(C)C[C@@H]1CCCCN1C(=O)Cc1ccc(Cl)c(Cl)c1", "EXPERIMENTAL SYSTEM": "Mu-type opioid receptor (Cavia porcellus)", "RELATION": "=", "pKi": 5.67}
{"MOLECULE": "O=C(Cc1ccc(O)cc1)N1CCCCC1CN1CCCC1 (stereo unspecified)", "EXPERIMENTAL SYSTEM": "Mu-type opioid receptor (Cavia porcellus)", "RELATION": "<", "pKi": 5.00}
{"MOLECULE": "CN1CCCC1C1CCCCN1C(=O)Cc1ccc(Cl)c(Cl)c1 (stereo in doubt; 42)", "EXPERIMENTAL SYSTEM": "Mu-type opioid receptor (Cavia porcellus)", "RELATION": "=", "pKi": 6.06}
{"MOLECULE": "O=C(Cc1ccc(F)cc1)N1CCCCC1CN1CCCC1 (stereo unspecified)", "EXPERIMENTAL SYSTEM": "Mu-type opioid receptor (Cavia porcellus)", "RELATION": "<", "pKi": 5.00}
{"MOLECULE": "Cc1ccc(CC(=O)N2CCCCC2CN2CCCC2)cc1 (stereo unspecified)", "EXPERIMENTAL SYSTEM": "Mu-type opioid receptor (Cavia porcellus)", "RELATION": "<", "pKi": 5.00}
